assay.overview: refractive index (Na D-line) (dimensionless)
condition.set: 288.15 K; 101.33 kPa; Liquid; Standard Abbe refractometry
property.label: refractive index
Numbers only.

CCOC(=O)CC(C)=O [ethyl 3-oxobutanoate]
1.4209
CCOC(=O)CC(C)C [ethyl 3-methylbutanoate]
1.3988
COC(=O)c1ccccc1 [methyl benzoate]
1.51915
CC(=O)OCc1ccccc1 [benzyl ethanoate]
1.50439
CCC(=O)OCc1ccccc1 [benzyl propanoate]
1.4995

Field: next compound
Determine its reported refractive index: CCOC(=O)c1ccccc1O [ethyl 2-hydroxybenzoate]
1.52481

====

assay.overview: xn = mol fraction of the nth substance listed
condition.set: 288.15 K, Wilhelmy plate method, x1 = 0.05
property.label: surface tension liquid-gas (mN/m)
Give bare numbers, in mN/m.

Sample records with surface tension liquid-gas:
CCOC(=O)CC(C)C [ethyl 3-methylbutanoate] + CCO
23.14
CC(=O)OCc1ccccc1 [benzyl ethanoate] + CCO
24
CCC(=O)OCc1ccccc1 [benzyl propanoate] + CCO
24
COC(=O)c1ccccc1 [methyl benzoate] + CCO
23.8
CCOC(=O)CC(C)=O [ethyl 3-oxobutanoate] + CCO
23.53

Field: next molecule
Determine its reported surface tension liquid-gas: CCOC(=O)c1ccccc1O [ethyl 2-hydroxybenzoate] + CCO
24
